Sourced from patent US20210040155A1

Measured cAMP Assay (EC-50), listed per entry for reference.
biological target: melanocortin-3 receptor (human, UniProt P41968 1-323); experiment: cell-based or functional assay
Sequence (P41968 whole entry): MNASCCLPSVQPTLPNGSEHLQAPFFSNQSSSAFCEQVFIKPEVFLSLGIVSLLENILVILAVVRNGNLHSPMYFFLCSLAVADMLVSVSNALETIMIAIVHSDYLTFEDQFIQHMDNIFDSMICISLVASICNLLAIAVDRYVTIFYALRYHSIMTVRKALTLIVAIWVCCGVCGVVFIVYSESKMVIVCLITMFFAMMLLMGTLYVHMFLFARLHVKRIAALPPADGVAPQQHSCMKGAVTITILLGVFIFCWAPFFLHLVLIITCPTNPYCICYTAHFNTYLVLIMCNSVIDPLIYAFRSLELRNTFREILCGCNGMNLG
Bridge positions count the residues as written; N and C are the ends. Square brackets hold non-standard residues; d marks the D form. dPhe(4-F) = N[C@H](Cc1ccc(F)cc1)C(=O)O
MEASURED QUANTITY: cAMP Assay (EC-50)

Ac-RC[dA]W[dF]RWC-NH2 (disulfide 2-8; SMILES CC(=O)N[C@@H](CCCNC(=N)N)C(=O)N[C@H]1CSSC[C@@H](C(N)=O)NC(=O)[C@H](Cc2c[nH]c3ccccc23)NC(=O)[C@H](CCCNC(=N)N)NC(=O)[C@@H](Cc2ccccc2)NC(=O)[C@H](Cc2c[nH]c3ccccc23)NC(=O)[C@@H](C)NC1=O) [Ac-Arg-cyclo[Cys-D-Ala-Trp-D-Phe-Arg-Trp-Cys]-NH2]: > 10 µM
Ac-RC[dA]P[dPhe(4-F)]RWC-NH2 (disulfide 2-8; SMILES CC(=O)N[C@@H](CCCNC(=N)N)C(=O)N[C@H]1CSSC[C@@H](C(N)=O)NC(=O)[C@H](Cc2c[nH]c3ccccc23)NC(=O)[C@H](CCCNC(=N)N)NC(=O)[C@@H](Cc2ccc(F)cc2)NC(=O)[C@@H]2CCCN2C(=O)[C@@H](C)NC1=O) [Ac-Arg-cyclo[Cys-D-Ala-Pro-D-Phe(p-F)-Arg-Trp-Cys]-NH2]: > 10 µM
Ac-RC[dA]N[dF]RWC-NH2 (disulfide 2-8; SMILES CC(=O)N[C@@H](CCCNC(=N)N)C(=O)N[C@H]1CSSC[C@@H](C(N)=O)NC(=O)[C@H](Cc2c[nH]c3ccccc23)NC(=O)[C@H](CCCNC(=N)N)NC(=O)[C@@H](Cc2ccccc2)NC(=O)[C@H](CC(N)=O)NC(=O)[C@@H](C)NC1=O) [Ac-Arg-cyclo[Cys-D-Ala-Asn-D-Phe-Arg-Trp-Cys]-NH2]: 0.081 µM
